- EXPERIMENTAL_TARGET: MAGL (recombinant wild-type) (Homo sapiens (Human))
- Sequence (Q99685 whole entry, species assumed): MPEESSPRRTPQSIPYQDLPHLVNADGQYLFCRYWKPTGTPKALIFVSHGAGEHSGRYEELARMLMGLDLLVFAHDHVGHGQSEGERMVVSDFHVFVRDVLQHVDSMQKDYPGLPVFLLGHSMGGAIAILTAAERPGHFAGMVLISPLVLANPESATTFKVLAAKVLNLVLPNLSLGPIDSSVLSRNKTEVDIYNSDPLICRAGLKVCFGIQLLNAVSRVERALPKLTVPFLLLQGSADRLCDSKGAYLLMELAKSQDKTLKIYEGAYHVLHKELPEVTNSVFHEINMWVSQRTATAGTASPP
- TEST_SUMMARY: 4-NPA assay: MAGL inhibitory activity by hydrolysis of 4-nitrophenylacetate (absorbance at 405 nm)
- MEASUREMENT_CONTEXT: measured in 4-NPA assay (footnote [a]); 1 nM MAGL, 300 μM 4-nitrophenylacetate
pIC50: −log10 of the molar value.
VALUE_TYPE: pIC50

Below, each entry is followed by its recorded pIC50 result.
N#Cc1ccc(CC2CCN(C(=O)N3CC[C@@H]4OCC(=O)N[C@@H]4C3)CC2)cc1 | 6.36
O=C1CO[C@H]2CCN(C(=O)N3CCN(Cc4ccc(Cl)cc4)CC3)C[C@H]2N1 | 5.68

a = CC(C)(C)c1coc(CC2CCN(C(=O)N3CC[C@@H]4OCC(=O)N[C@@H]4C3)CC2)n1 [Example 4]
b = O=C1CO[C@@H]2CCN(C(=O)N3CCC(Cc4ccc(C(F)(F)F)cc4)CC3)C[C@@H]2N1
Field: lower recorded pIC50 (choose a or b ) The response must carry the label of the picked entry.
b

----------
- EXPERIMENTAL_TARGET: MAGL (recombinant wild-type) (Homo sapiens (Human))
- TEST_SUMMARY: 4-NPA assay: MAGL inhibitory activity by hydrolysis of 4-nitrophenylacetate (absorbance at 405 nm)
- MEASUREMENT_CONTEXT: measured in 4-NPA assay (footnote [a]); 1 nM MAGL, 300 μM 4-nitrophenylacetate
pIC50: −log10 of the molar value.
VALUE_TYPE: pIC50

Below, each entry is followed by its recorded pIC50 result.
N#Cc1cc(F)ccc1OCC1CCN(C(=O)N2CC[C@@H]3OCC(=O)N[C@@H]3C2)CC1 | 7.10
O=C1CO[C@H]2CCN(C(=O)N3CCC(COc4ccc(C(F)(F)F)cc4F)CC3)C[C@H]2N1 | 7.24
O=C1CO[C@H]2CCN(C(=O)N3CC(COc4ccc(F)cc4Cl)C3)C[C@H]2N1 [Example 57] | 7.31
O=C1CO[C@H]2CCN(C(=O)N3CCC(COc4ccccc4)CC3)C[C@H]2N1 | 6.72
O=C1CO[C@H]2CCN(C(=O)N3CCC(Cc4ccc(Cl)c(F)c4)CC3)C[C@H]2N1 | 8.40

A = CC(C)(C)c1csc(CC2CCN(C(=O)N3CC[C@H]4OCC(=O)N[C@H]4C3)CC2)n1
B = O=C1CO[C@H]2CCN(C(=O)N3CC(OCc4ccc(C(F)(F)F)cc4Cl)C3)C[C@H]2N1
C = CC1C(OCc2ccc(C(F)(F)F)cc2)CN1C(=O)N1CC[C@@H]2OCC(=O)N[C@@H]2C1 (single isomer, unassigned) [Example 104]
rank_up(items): orders items by reported pIC50 in ascending numerical order. // rank by listing labels in the order requested
A, C, B
(A: 5.89, C: 6.35, B: 8.70)

----------
pIC50: −log10 of the molar value.
Measured pIC50 on UniProtKB Q99685 follows.
VALUE_TYPE: pIC50

Below, each entry is followed by its recorded pIC50 result.
Cc1c(COC2CN(C(=O)N3CC[C@@H]4OCC(=O)N[C@@H]4C3)C2C)cccc1C(F)(F)F (stereo partly shown) | 8.00
CC1(F)CN(c2cc(OC3CN(C(=O)N4CC[C@@H]5OCC(=O)N[C@@H]5C4)C3)ccc2C(F)(F)F)C1 | 7.55
O=C1CO[C@H]2CCN(C(=O)N3CCC(Oc4ccc(Cl)c(-n5cccn5)c4)CC3)C[C@H]2N1 | 7.07
N#Cc1cc(OC2CN(C(=O)N3CC[C@@H]4OCC(=O)N[C@@H]4C3)C2)ccc1C(F)(F)F | 5.96

P = O=C1CO[C@H]2CCN(C(=O)N3CCC(Oc4ccc(Cl)c(C5CC5)c4)CC3)C[C@H]2N1
Q = CC(=O)c1cc(C(F)(F)F)ccc1CCC1CN(C(=O)N2CC[C@@H]3OCC(=O)N[C@@H]3C2)C1
Name the one with the greater pIC50 value, either P or Q as given. The response must carry the label of the picked entry.
Q

Source: patent US11802133B2
